# Tested on: MCF-10A
# method_notes: MTT cytotoxicity assay, normal breast cell line MCF-10A
# Assay type: cell-based, human
# experimental_context: Homo sapiens, MCF-10A, 48 h, read-out: IC50 Values MCF-10A
pIC50: −log10 of the molar value.
// reported pIC50 for each item listed

Recorded results for 8 compounds are shown here.
| smiles_code | assayed_system | pIC50 |
| --- | --- | --- |
| Cc1ccccc1Nc1ncccc1N=Cc1cc(Br)ccc1O | MCF-10A | < 4.00 |
| Oc1ccccc1C=Nc1cccnc1NCc1ccccc1 | MCF-10A | < 4.00 |
| Nc1cccnc1NC1CCCCC1 | MCF-10A | < 4.00 |
| Nc1cccnc1NCc1ccccc1 | MCF-10A | < 4.00 |
| Oc1ccc2ccccc2c1C=Nc1cccnc1NCc1ccccc1 | MCF-10A | < 4.00 |
| Cc1ccccc1Nc1ncccc1[N+](=O)[O-] | MCF-10A | < 4.00 |
| Oc1ccc(Br)cc1C=Nc1cccnc1NCc1ccccc1 | MCF-10A | < 4.00 |
| Oc1ccc(Br)cc1C=Nc1cccnc1NC1CCCCC1 | MCF-10A | < 4.00 |

Q) Which pIC50 is listed for "Cc1ccccc1Nc1ncccc1N" ?
A) < 4.00

###

# System: MCF-7
# method_notes: MTT cytotoxicity assay, MCF-7
# Format: cell-based, human
# experimental_context: read-out: IC50 Values MCF-7; MTT, 48 h, ±SD
attribute_measured: pIC50
// scale note: pIC50 = -log10(conc_M); give the bare number

Q) Which pIC50 is listed for N.N.[Cl][Pt][Cl] [Cisplatin, reference compound] ?
A) 4.62
